// provenance: ChEMBL document CHEMBL1201862

Tested on: MDA-MB-435
experiment.summary: NCI tumour cell line growth inhibition, 48 h
The source made the active and inactive calls. Cut-off read from the data, not from the text of the source: active = GI50 up to about 1.1 µM and inactive = higher.
Your reply should match one of these outcome classes. active, inactive

// below: answered compounds
{"compound": "Cc1ccc2c(c1)C(=O)C1(Cc3ccccc3C1=O)C2 (stereo unspecified)", "qualitative.label": "inactive"}
{"compound": "COc1cccc(Nc2nc3c([nH]2)c(=O)n(C)c(=O)n3C)c1", "qualitative.label": "inactive"}
{"compound": "Cc1noc(C)c1/N=N/c1ccc2nonc2c1N", "qualitative.label": "inactive"}
{"compound": "Nc1ccc(-c2ccc(Nc3cc(S(=O)(=O)O)c(N)c4c3C(=O)c3ccccc3C4=O)cc2)c(S(=O)(=O)O)c1", "qualitative.label": "inactive"}
{"compound": "Cc1ccc(NC(S)=Nc2c(C)n(C)n(-c3ccccc3)c2=O)cc1", "qualitative.label": "inactive"}

Record lookup: outcome of this test for CN(C)Nc1cc(=O)[nH]c(=O)[nH]1 ? inactive

Record lookup: outcome of this test for C[C@@H]1OC(=O)C[C@H]2CC(=O)N(CCc3cn(S(=O)(=O)C(F)(F)F)c4ccccc34)C[C@@H]21 ? inactive

Record lookup: outcome of this test for S=C1NC2=C(COC/C2=C\c2ccccc2Cl)C(c2ccccc2Cl)N1 (stereo unspecified) ? inactive
